Numbers sourced from PubChem BioAssay AID493131.

Target: Protein FosB (Mus musculus) (UniProt P13346)
Sequence (P13346 whole entry, looked up): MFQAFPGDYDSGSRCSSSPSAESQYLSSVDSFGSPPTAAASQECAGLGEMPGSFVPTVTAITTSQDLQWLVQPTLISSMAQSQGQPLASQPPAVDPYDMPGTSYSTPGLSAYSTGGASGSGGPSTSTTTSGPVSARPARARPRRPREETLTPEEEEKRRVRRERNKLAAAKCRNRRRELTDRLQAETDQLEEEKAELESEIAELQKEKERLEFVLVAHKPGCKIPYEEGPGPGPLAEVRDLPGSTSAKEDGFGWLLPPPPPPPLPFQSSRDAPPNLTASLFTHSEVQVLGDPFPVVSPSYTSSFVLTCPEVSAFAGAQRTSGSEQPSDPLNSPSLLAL
Assay: activators of delta FosB homodimer, primary screen, biochemical, fluorescence polarization, TAMRA-CDK5 oligo, single point (AID 493131);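 further: fluorescence polarization rise as delta FosB binds a TAMRA Cdk5 AP-1 oligo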
Settings: purified delta FosB, at 25 µM, hits give high values, percent of positive-control signal above neutral wells
Out of some 340,000 compounds screened, about 3,300 (0.97%) were called active. What follows is part of a selection rich in actives, with near analogues and random picks from the rest.
Quantity name: activation (%)

Compound	Quantity name	Result value
Cc1noc(C)c1NC(=O)Nc1cccc2c1O[C@H](CN(C)C(=O)Nc1ccccc1)[C@@H](C)CN([C@H](C)CO)C2=O	activation	4.59
Cc1cccc(OCC(O)CN2CCN(CCN3C(=O)c4cccc5cccc(c45)C3=O)CC2)c1C (stereo not given)	activation	62.2
CCN1C(=NCCc2cccnc2)N[C@@H](c2ccccc2)C(C(=O)OC)=C1C	activation	-0.917
COc1ccccc1OCC(O)CN1CCOCC1 (stereo not given)	activation	-1.24
COc1ccccc1CNC(=O)c1cc(=O)c2ccccc2o1	activation	-8.74
COc1ccccc1CNC(=O)COC(=O)CNS(=O)(=O)c1ccc(NC(C)=O)cc1	activation	0.477
Cc1cc(NC(=O)Nc2c[nH]c(=O)[nH]c2=O)ccc1Br	activation	27
COc1ccccc1C(=O)COC(=O)CNS(=O)(=O)c1ccc(NC(C)=O)cc1	activation	-5.62
CCc1nnc(NS(=O)(=O)c2ccc(NC(=S)NC(=O)/C=C/c3cccs3)cc2)s1	activation	-19.1
Cc1ccc2nc(N(CCN(C)C)C(=O)C3=COCCO3)sc2c1	activation	-2.06
COC(=O)c1ccc(C23CC4(C2)[C@H](CN(Cc2cccnc2)[C@@H]4c2ccccc2)C3c2ccc(Cl)nc2)cc1 (stereo not given in full)	activation	23.5
CC(Sc1nncn1C)C(=O)Nc1ccccc1-c1ccccc1 (stereo not given)	activation	-4.45
O=C(Nc1c[nH]c(=O)[nH]c1=O)OCc1ccccc1	activation	1.77
COc1ccc(C(CNC(=O)c2ccc(S(=O)(=O)Nc3ccccc3F)cc2)N(C)C)cc1 (stereo not given)	activation	1.38
O=C(N/N=C/c1ccco1)c1csc2c1CCCC2	activation	2.38
